Entry source: patent US9423396B2

Assay: Spectroscopic measurements (absorption, emission, quantum yield, extinction coefficient)
Format: physicochemical
Details: fluorescence emission maximum, BDNCA library
Overview of recorded Flu for various molecules
Output spec: single numeric token, no unit.

Example cases with answers are listed next.
# given-smiles, Flu
records = [
    ("CC1=CC(/C=C/c2ncc[nH]2)=[N+]2C1=C(c1ccc(NC(=O)CCl)cc1)c1cccn1[B-]2(F)F", 614),
    ("COc1ccc(/C=C/c2cc(C)c3n2[B-](F)(F)[N+]2=CC=CC2=C3c2ccc(NC(=O)CCl)cc2)c(Cl)c1OC", 594),
    ("CC1=CC(/C=C/c2c(C)nn(C)c2C)=[N+]2C1=C(c1ccc(NC(=O)CCl)cc1)c1cccn1[B-]2(F)F", 601),
]

Recorded Flu of CC1=CC(/C=C/c2cccc(Oc3ccc(C(C)(C)C)cc3)c2)=[N+]2C1=C(c1ccc(NC(=O)CCl)cc1)c1cccn1[B-]2(F)F , please.
576

Okay, and COc1ccc(/C=C/C2=[N+]3C(=C(c4ccc(NC(=O)CCl)cc4)c4cccn4[B-]3(F)F)C(C)=C2)c(OC)c1C ?
604

Okay, and CC1=CC(/C=C/c2ccc(Cl)c(F)c2)=[N+]2C1=C(c1ccc(NC(=O)CCl)cc1)c1cccn1[B-]2(F)F ?
575

Okay, and Cc1cc(/C=C/c2cc(F)ccc2O)n2c1C(c1ccc(NC(=O)CCl)cc1)=C1C=CC=[N+]1[B-]2(F)F ?
589
